- system_under_test: FosA3 W34A (Escherichia coli, UniProt D7UQM0, W34A)
- test_details: biochemical
readout: Kd (nM)

cpd_smiles	recorded_result
O=c1[nH]n2cc(-c3n[nH]c(-c4cnc5c(Br)c(=O)[nH]n5c4)c3[N+](=O)[O-])cnc2c1Br	2620

* * *

- system_under_test: FosA3 Y65F (Escherichia coli, UniProt D7UQM0, Y65F)
- Sequence (D7UQM0 1-138 Y65F): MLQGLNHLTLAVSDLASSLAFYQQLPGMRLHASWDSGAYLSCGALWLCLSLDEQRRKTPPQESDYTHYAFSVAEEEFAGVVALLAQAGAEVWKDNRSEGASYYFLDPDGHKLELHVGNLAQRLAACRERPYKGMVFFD
- test_details: Tryptophan fluorescence binding studies
pKd: −log10 of the molar value.
readout: pKd

molecule	recorded_result
O=c1[nH]n2cc(-c3n[nH]c(-c4cnc5c(Br)c(=O)[nH]n5c4)c3[N+](=O)[O-])cnc2c1Br [ANY1]	6.11
